TGI for assorted compounds
System: UACC-62 melanoma
Assay: NCI tumour cell line growth inhibition, 48 h

>  <COMPOUND>
CC1(C)CN=C(Nc2ccc(F)c(Cl)c2)S1

>  <TGI>
> 100 µM

$$$$
>  <COMPOUND>
COc1cc2c(cc1OC)-c1ncc3cc(OC)c(OC)cc3c1C2

>  <TGI>
> 50 µM

$$$$
>  <COMPOUND>
CC(C)C1NC(=O)[C@H](C)OC(=O)[C@@H](C(C)C)NC(=O)[C@@H](C)OC(=O)C(C(C)C)NC(=O)[C@H](C)OC1=O (stereo partly specified)

>  <TGI>
> 100 µM

$$$$
>  <COMPOUND>
[N-]=[N+]=NC1C2CC3CC(C2)CC1C3 (stereo unspecified)

>  <TGI>
> 100 µM

$$$$
>  <COMPOUND>
CCOC(=O)c1csc(-c2nc(CCNC(=O)c3ccccc3)sc2Cl)n1

>  <TGI>
> 100 µM

$$$$
>  <COMPOUND>
O=P(O)(O)CC1OC(CO)C(O)C1O (stereo unspecified)

>  <TGI>
> 100 µM

$$$$
